Listed next: entries and their corresponding Cell Viability.
System: BV2 microglial cells
Assay: cytotoxicity, MTT assay
Format: cell-based, mouse
Conditions: 10.0 μM, 24 h, BV2 microglial cells, n = 3; in % (unit assumed)
Quick one: just the number, no unit, thanks!

C=C1CC[C@]2(C(=O)O[C@@H]3O[C@H](CO)[C@@H](O)[C@H](O)[C@H]3O[C@@H]3O[C@@H](C)[C@H](O)[C@@H](O)[C@H]3O)CC[C@]3(C)C(=CC[C@@H]4[C@@]5(C)CC[C@H](O[C@@H]6OC[C@H](O)[C@H](O[C@@H]7O[C@H](CO)[C@@H](O)[C@H](O)[C@H]7O[C@@H]7O[C@H](CO)[C@@H](O)[C@H](O)[C@H]7O)[C@H]6O[C@@H]6O[C@@H](C)[C@H](O)[C@@H](O)[C@H]6O)C(C)(C)[C@@H]5CC[C@]43C)[C@@H]2[C@]1(C)O [Compound 7, ilekudinoside F] = 101.68
CCCCOC(=O)C1OC(OC2CCC3(C)C(CCC4(C)C3CC=C3C5C(C(=O)OC6OC(CO)C(O)C(O)C6O)(CCC(C)C5(C)O)CCC34C)C2(C)C)C(O)C(OS(=O)(=O)O)C1O (centres unmarked) [Compound 2] = 98.25
C[C@@H]1CC[C@]2(C(=O)O[C@@H]3O[C@H](CO)[C@@H](O)[C@H](O)[C@H]3O)CC[C@]3(C)C(=CCC4[C@@]5(C)CC[C@H](O[C@@H]6O[C@H](CO)[C@@H](O)[C@H](O)[C@H]6O[C@@H]6O[C@H](CO)[C@@H](O[C@@H]7O[C@H](CO)[C@@H](O)[C@H](O)[C@H]7O)[C@H](O)[C@H]6O)C(C)(C)C5CC[C@]43C)[C@@H]2[C@]1(C)O (some centres unmarked) [Compound 3, hylonoside II] = 90.28

Query (compound): C[C@H]1CC[C@]2(C(=O)O[C@@H]3O[C@H](CO)[C@@H](O)[C@H](O)[C@H]3O)CC[C@]3(C)C(=CCC4[C@@]5(C)CC[C@H](O[C@@H]6OC[C@@H](O)[C@H](O)[C@H]6OS(=O)(=O)O)C(C)(C)C5CC[C@]43C)C2[C@]1(C)O (some centres unmarked) [Compound 5, ilexpublesnin I] ; field requested: Cell Viability
99.33

// lookup Cell Viability for C[C@@H]1CC[C@]2(C(=O)O[C@@H]3O[C@H](CO)[C@@H](O)[C@H](O)[C@H]3O)CC[C@]3(C)C(=CCC4[C@@]5(C)CC[C@H](OS(=O)(=O)[O-])[C@](C)(CO)C5CC[C@]43C)[C@@H]2[C@]1(C)O.[Na+] (some centres unmarked) [Compound 6, ilexoside XXXV]
102.28

Origin of the recorded values: paper PMC6152231
